This section presents compounds with their documented IC50 values.
Tested on: C33A (HPV−) cells
protocol-notes: Cell proliferation/viability assay, C33A cells
Format: cell-based
particulars: Homo sapiens, C-33-A, 96 h; C33A, HPV-negative, 4 days; read-out: C33A (HPV−) Proliferation IC50
From the text: Caski (catalog number CRL-1550), SiHa (catalog number HTB-35), C33A (catalog number HTB-31), Saos-2 (ATCC HTB-85), and Hela (catalog number CCL-2) cells were obtained from the American Type Culture Collection (ATCC). The human cervical carcinoma cell lines Caski. […]

COc1ccc(-c2cc(C(F)(F)F)cc3nc(OC(F)F)cnc23)cc1C(F)(F)F ... 78.7 µM
COc1cccc(-c2cc(C(F)(F)F)cc3nc(OC(F)F)cnc23)c1 ... > 99.5 µM
COc1cc(-c2cc(C(F)(F)F)cc3nc(OC(F)F)cnc23)cc(C(F)(F)F)c1 ... 40.5 µM

Asked: Need IC50, item COc1ccc(-c2cc3ncc(OC(F)F)nc3cc2C(F)(F)F)cc1
Given back: > 100 µM

----------
Test system: HeLa (HPV18+) cells
protocol-notes: Cell proliferation/viability assay, HeLa cells
Type: cell-based
particulars: Homo sapiens, 96 h, 4 days
measured-property: pIC50
Please note pIC50 is a logarithmic value: minus log10 of concentration in mol/L. Answer with that number alone.

Example results:
COc1ccc(-c2cc(C)cc3nc(OC(F)F)cnc23)cc1C(F)(F)F ... 5.04
COc1ccc(-c2cc3ncc(OC(F)F)nc3cc2C(F)(F)F)cc1 ... 5.36
COc1cccc(-c2cc(C(F)(F)F)cc3nc(OC(F)F)cnc23)c1 ... 5.36

Asked: Need pIC50, item COc1cc(-c2cc(C(F)(F)F)cc3nc(OC(F)F)cnc23)cc(C(F)(F)F)c1
Given back: 4.43

----------
Tested on: Saos-2 (HPV−) cells
protocol-notes: Cell proliferation/viability assay, Saos-2 cells
Assay type: cell-based
particulars: Homo sapiens, SAOS-2, 96 h, read-out: Saos-2 (HPV−) Proliferation IC50 (μM)
This section presents compounds with their documented IC50 values.
Respond numerically; units are µM and should not be typed.

Example results:
COc1ccc(-c2cc(C#N)cc3nc(OC(F)F)cnc23)cc1 ... 7.7
COc1ccc(-c2cc(C)cc3nc(OC(F)F)cnc23)cc1 ... 48
Cc1cc(-c2ccc(F)c(F)c2)c2ncc(OC(F)F)nc2c1 ... 70.6
COc1ccc(-c2cc(C(F)(F)F)cc3nc(OC(F)F)cnc23)cc1 ... 58.3

// next item, IC50 requested
Asked: I'm curious: which IC50 was measured for C#Cc1cc(-c2ccc(OC)cc2)c2ncc(OC(F)F)nc2c1 tested on Saos-2 (HPV−) cells?
Given back: 53.1

----------
System: platelet aggregation induced by gamma-thrombin
protocol-notes: Gamma thrombin induced platelet aggregation assay in platelet rich plasma (PRP)
Type: cell-based
particulars: human platelet rich plasma
Text: The compounds of the current invention can be tested in vitro for their ability to inhibit platelet aggregation induced by gamma-thrombin as shown in Example C. […] Platelet aggregation can be monitored in a 96-well microplate aggregation assay format or using standard platelet aggregometer. […]
pIC50: −log10 of the molar value.
measured-property: pIC50

Asked: Need pIC50, item COc1ccc(-c2cc(C)cc3nc(OC(F)F)cnc23)cc1 [Example 6]
Given back: < 4.52

----------
Test system: HeLa (HPV18+) cells
protocol-notes: Cell proliferation/viability assay, HeLa cells
Format: cell-based
particulars: Homo sapiens, 96 h, 4 days
pIC50: −log10 of the molar value.
Decision: pIC50 >= 5 yields yes (1), all other cases yield no (0).

COc1cc(F)cc(-c2cc(C)cc3nc(OC(F)F)cnc23)c1 [Example 21] ... no (0)

Asked: Hi, just wondering whether Cc1cc(-c2ccc(C(F)(F)F)cc2)c2ncc(OC(F)F)nc2c1 [Example 19] shows pIC50 of 5 or higher.
Given back: no (0)

Asked: Hi, just wondering whether Cc1cc(-c2ccc(F)c(C(F)(F)F)c2)c2ncc(OC(F)F)nc2c1 [Example 17] shows pIC50 of 5 or higher.
Given back: no (0)

Asked: Hi, just wondering whether COc1ccc(-c2cc(C(F)(F)F)cc3nc(OC(F)F)cnc23)cc1Br [Example 15] shows pIC50 of 5 or higher.
Given back: no (0)

Asked: Hi, just wondering whether COc1ccc(-c2cc(C(F)(F)F)cc3nc(OC(F)F)cnc23)cc1F [Example 12] shows pIC50 of 5 or higher.
Given back: yes (1)

Asked: Hi, just wondering whether COc1ccc2cc(-c3cc(C(F)(F)F)cc4nc(OC(F)F)cnc34)ccc2c1 [Example 11] shows pIC50 of 5 or higher.
Given back: yes (1)

Asked: Hi, just wondering whether COc1ccc(-c2cc(C(F)(F)F)cc3ncc(OC(F)F)nc23)cc1 [Example 14] shows pIC50 of 5 or higher.
Given back: yes (1)

----------
Tested on: Caski (HPV16+) cells
protocol-notes: Cell proliferation/viability assay, Caski cells
Type: cell-based
particulars: Homo sapiens, Ca-Ski, 96 h, 4 days
measured-property: log10 IC50 (log10 of the value in µM)
Please note: log10 values; quantity IC50; unit µM.

Example results:
C#Cc1cc(-c2ccc(OC)cc2)c2ncc(OC(F)F)nc2c1 [Example 5] ... 0.53
COC(=O)c1cc(-c2ccc(OC)cc2)c2ncc(OC(F)F)nc2c1 [Example 4] ... 1.10
Cc1cc(-c2ccc(F)c(F)c2)c2ncc(OC(F)F)nc2c1 [Example 22] ... 1.20
COc1ccc(-c2cc(C)cc3nc(OC(F)F)cnc23)cc1 [Example 6] ... 0.85
COc1ccc(-c2cc(Cl)cc3nc(OC(F)F)cnc23)cc1 [Example 2] ... 1.00
Cc1cc(-c2cccc(OC(F)(F)F)c2)c2ncc(OC(F)F)nc2c1 [Example 26] ... 0.78
COc1ccc(-c2cc(C(F)(F)F)cc3ncc(OC(F)F)nc23)cc1 [Example 14] ... 0.45
Cc1cc(-c2ccc(C(F)(F)F)cc2)c2ncc(OC(F)F)nc2c1 [Example 19] ... 1.16
COc1ccc(-c2cc(C)cc3nc(OC(F)F)cnc23)cc1C(F)(F)F [Example 16] ... 0.85
COc1ccc(-c2cc(C(F)(F)F)cc3nc(OC(F)F)cnc23)cc1F [Example 12] ... 0.51

Asked: I'm curious: which log10 IC50 was measured for C=Cc1cc(-c2ccc(OC)cc2)c2ncc(OC(F)F)nc2c1 [Example 3] tested on Caski (HPV16+) cells?
Given back: 1.79

Asked: I'm curious: which log10 IC50 was measured for COc1ccc(-c2cc(C(F)(F)F)cc3nc(OC(F)F)cnc23)cc1C(F)(F)F [Example 9] tested on Caski (HPV16+) cells?
Given back: 0.52

Asked: I'm curious: which log10 IC50 was measured for Cc1cc(-c2ccc(F)c(C(F)(F)F)c2)c2ncc(OC(F)F)nc2c1 [Example 17] tested on Caski (HPV16+) cells?
Given back: 1.25

----------
Tested on: Caski (HPV16+) cells
protocol-notes: Cell proliferation/viability assay, Caski cells
Type: cell-based
particulars: Homo sapiens, Ca-Ski, 96 h, 4 days
measured-property: pIC50
Please note pIC50 is a logarithmic value: minus log10 of concentration in mol/L. Answer with that number alone.

Cc1cc(-c2ccc(Cl)cc2Cl)c2ncc(OC(F)F)nc2c1 [Example 23] ... 4.89

Asked: Need pIC50, item COc1cccc(-c2cc(C(F)(F)F)cc3nc(OC(F)F)cnc23)c1 [Example 10]
Given back: 5.41

Asked: Need pIC50, item COc1ccc(-c2cc(C#N)cc3nc(OC(F)F)cnc23)cc1 [Example 1]
Given back: 5.64

Asked: Need pIC50, item Cc1cc(-c2cccc(Cl)c2)c2ncc(OC(F)F)nc2c1 [Example 18]
Given back: 4.86

Asked: Need pIC50, item COc1cc(-c2cc(C(F)(F)F)cc3nc(OC(F)F)cnc23)cc(C(F)(F)F)c1 [Example 13]
Given back: 4.81

Asked: Need pIC50, item Cc1cc(-c2ccc(OC(F)(F)F)cc2)c2ncc(OC(F)F)nc2c1 [Example 20]
Given back: 4.79

----------
Tested on: C33A (HPV−) cells
protocol-notes: Cell proliferation/viability assay, C33A cells
Format: cell-based
particulars: Homo sapiens, C-33-A, 96 h; C33A, HPV-negative, 4 days; read-out: C33A (HPV−) Proliferation IC50
This section presents compounds with their documented IC50 values.

Example results:
COc1ccc(-c2cc(C(F)(F)F)cc3ncc(OC(F)F)nc23)cc1 ... 49.9 µM
COc1ccc(-c2cc(C(F)(F)F)cc3nc(OC(F)F)cnc23)cc1Br ... > 99.5 µM
Cc1cc(-c2cccc(C(F)(F)F)c2)c2ncc(OC(F)F)nc2c1 ... > 100 µM
COc1ccc(-c2cc(C(F)(F)F)cc3nc(OC(F)F)cnc23)cc1F ... > 99.5 µM
Cc1cc(-c2ccc(F)c(C(F)(F)F)c2)c2ncc(OC(F)F)nc2c1 ... 58.3 µM

Asked: I'm curious: which IC50 was measured for COc1ccc(-c2cc(C)cc3nc(OC(F)F)cnc23)cc1C(F)(F)F tested on C33A (HPV−) cells?
Given back: > 99.5 µM

Asked: I'm curious: which IC50 was measured for COc1ccc2cc(-c3cc(C(F)(F)F)cc4nc(OC(F)F)cnc34)ccc2c1 tested on C33A (HPV−) cells?
Given back: > 99.5 µM

Where these numbers come from: patent US10517870B2
